Reference source for all entries: PubChem BioAssay AID2237

# ASSAY_TARGET: Short transient receptor potential channel 4 (Mus musculus) (UniProt Q9QUQ5)
# Sequence (Q9QUQ5 whole entry, looked up): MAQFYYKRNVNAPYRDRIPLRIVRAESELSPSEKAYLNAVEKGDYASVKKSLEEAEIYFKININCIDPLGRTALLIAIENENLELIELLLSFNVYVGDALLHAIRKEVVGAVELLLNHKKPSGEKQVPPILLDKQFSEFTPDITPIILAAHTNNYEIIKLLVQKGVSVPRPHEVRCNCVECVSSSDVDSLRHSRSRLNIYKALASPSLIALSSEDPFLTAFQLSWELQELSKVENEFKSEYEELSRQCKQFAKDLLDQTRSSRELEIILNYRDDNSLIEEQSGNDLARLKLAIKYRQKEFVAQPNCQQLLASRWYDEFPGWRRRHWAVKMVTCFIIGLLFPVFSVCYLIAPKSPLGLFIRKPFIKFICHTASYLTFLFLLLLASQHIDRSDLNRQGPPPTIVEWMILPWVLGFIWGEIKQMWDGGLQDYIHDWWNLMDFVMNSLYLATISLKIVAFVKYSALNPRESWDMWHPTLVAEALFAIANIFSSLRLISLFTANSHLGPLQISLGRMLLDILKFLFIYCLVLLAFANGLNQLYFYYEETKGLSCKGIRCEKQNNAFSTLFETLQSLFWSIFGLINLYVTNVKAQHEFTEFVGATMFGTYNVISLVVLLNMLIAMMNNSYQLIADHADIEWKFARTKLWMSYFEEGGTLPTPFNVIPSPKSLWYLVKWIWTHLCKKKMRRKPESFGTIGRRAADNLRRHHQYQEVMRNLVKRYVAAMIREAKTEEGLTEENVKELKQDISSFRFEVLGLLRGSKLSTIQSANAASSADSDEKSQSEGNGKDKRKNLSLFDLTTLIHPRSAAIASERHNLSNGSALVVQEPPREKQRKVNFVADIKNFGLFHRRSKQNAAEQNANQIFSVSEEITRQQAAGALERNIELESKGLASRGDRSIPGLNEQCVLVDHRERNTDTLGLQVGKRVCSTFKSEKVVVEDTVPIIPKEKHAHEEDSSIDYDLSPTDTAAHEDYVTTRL
# PROTOCOL: activators of mouse TRPC4 channel, primary screen, Fluo4 calcium, HEK293 TRPC4beta/mu-opioid cells (AID 2237)
# CONDITION: Fluo4 calcium fluorescence, at 10 µM
About 1,500 (0.48%) of roughly 310,000 compounds were called active.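 How the source made its calls: active means B-score above 5 SD of library B-scores, and initial fluorescence ratio not above library mean plus 5 SD; inactive means the rest.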 Only a selection was taken, and actives are over-represented in it overall.
Outcomes: 1 (yes) = active, 0 (no) = inactive

{"COMPOUND": "Cc1ccc(NC(=O)c2csc3c2CCCC3)cc1", "ASSAY_TARGET": "Short transient receptor potential channel 4 (Mus musculus) (UniProt Q9QUQ5)", "LABEL": "0 (no)"}
{"COMPOUND": "CC(C)(C)[C@H]1C=C(C(=O)NCc2ccccc2)O[C@@H](OCc2ccc(CO)cc2)C1", "ASSAY_TARGET": "Short transient receptor potential channel 4 (Mus musculus) (UniProt Q9QUQ5)", "LABEL": "1 (yes)"}
{"COMPOUND": "Cc1ccc(CNC(=O)c2c(-c3ccccc3)noc2C)cc1", "ASSAY_TARGET": "Short transient receptor potential channel 4 (Mus musculus) (UniProt Q9QUQ5)", "LABEL": "0 (no)"}
{"COMPOUND": "CCc1noc(C)c1C(=O)NNC(=O)c1ccc(F)cc1", "ASSAY_TARGET": "Short transient receptor potential channel 4 (Mus musculus) (UniProt Q9QUQ5)", "LABEL": "0 (no)"}
{"COMPOUND": "Cc1onc(-c2ccccc2)c1C(=O)NNC(=S)NC(=O)c1ccc(F)cc1", "ASSAY_TARGET": "Short transient receptor potential channel 4 (Mus musculus) (UniProt Q9QUQ5)", "LABEL": "1 (yes)"}
{"COMPOUND": "CC1CC(C)CN(CCCNC(=O)c2csc3c2CCCCC3)C1 (stereo unspecified)", "ASSAY_TARGET": "Short transient receptor potential channel 4 (Mus musculus) (UniProt Q9QUQ5)", "LABEL": "1 (yes)"}
{"COMPOUND": "CCC1CCCCN1CCCNC(=O)c1cc2c(Cl)nc3ccccc3c2s1 (stereo unspecified)", "ASSAY_TARGET": "Short transient receptor potential channel 4 (Mus musculus) (UniProt Q9QUQ5)", "LABEL": "0 (no)"}
{"COMPOUND": "N[C@@H](Cc1ccccc1)C(=O)N1CCC(C(=O)NCC(=O)Nc2ccc(F)cc2)CC1", "ASSAY_TARGET": "Short transient receptor potential channel 4 (Mus musculus) (UniProt Q9QUQ5)", "LABEL": "0 (no)"}
{"COMPOUND": "COC(=O)C1=C(C)N(C)C(=S)NC1c1ccccc1 (stereo unspecified)", "ASSAY_TARGET": "Short transient receptor potential channel 4 (Mus musculus) (UniProt Q9QUQ5)", "LABEL": "0 (no)"}
{"COMPOUND": "O=C(NCc1ccccc1)C1=C[C@@H](c2ccc(C(F)(F)F)cc2)C[C@@H](OCc2ccc(CO)cc2)O1", "ASSAY_TARGET": "Short transient receptor potential channel 4 (Mus musculus) (UniProt Q9QUQ5)", "LABEL": "0 (no)"}
{"COMPOUND": "O=C(NCc1ccccc1Cl)c1csc2c1CCCCC2", "ASSAY_TARGET": "Short transient receptor potential channel 4 (Mus musculus) (UniProt Q9QUQ5)", "LABEL": "0 (no)"}
